For each record, write down the corresponding Average skin reaction.
Organism: Cavia porcellus
Test: Compound was measured for open epicutaneous test on sensitized guinea pig after sensitization of compound (4-Hydroxy-3-methylene-1-oxa-spiro[4.5]decan-2-one). average skin reaction.
Type: functional

Please review the following examples before continuing.
smilesstring=C=C1C(=O)OC2(CCCCC2)[C@@H]1O result=0.7
smilesstring=C=C1CC2(CCCCC2)OC1=O result=1.7
smilesstring=C=C1C(=O)OC[C@@H]1OC(C)=O result=0
smilesstring=C=C1CCOC1=O result=0

We next turn to a different compound, shown below.
The compound listed as C=C1C(=O)OC2(CCCCC2)[C@@H]1OC(C)=O shows Average skin reaction equal to 1.8
